test system: P. falciparum stage V gametocytes; design: BacTiter-Glo ATP luminescence viability of purified stage V gametocytes in 384-well plates, per cent inhibition versus DMSO; conditions: 48 h, 5 µM; inhibitor
Out of some 13,000 compounds screened, about 3,200 (25%) showed an effect of 50% or more. Some of the results follow.
Hi there, I'd appreciate the recorded % Inhibition for every entry that follows.
Express the result in % but write the number alone.

Entry CC(O)C1CCCCN1C(=O)c1cccc(-c2ccc(-c3nc4ccccc4[nH]3)s2)c1 (stereo not drawn) , % Inhibition reported as 27.09

Entry Cc1ccc(OCCCCONC(=O)c2ccccc2)cc1 , % Inhibition reported as 2.332

Entry CN(C)c1ccc(-c2csc(C(=O)NCC3CCN(CCC(C)(C)C)C3)c2)cc1 (stereo not drawn) , % Inhibition reported as 60.6

Entry Cc1ccc(NC(=O)c2cccc(CN3CCCN(CC4CCCCC4)CC3)c2)cc1F , % Inhibition reported as -34.77

Entry COc1cccc2cc(C(=O)N[C@@H](CC(C)C)C(=O)N[C@H](C=NNC(=O)OC(C)(C)C)CC(C)C)oc12 , % Inhibition reported as 12.96

Entry CCN(CC)CCN(Cc1ccc(-c2ccc(C(F)(F)F)cc2)cc1)C(=O)Cn1c(CCc2ccc(F)c(F)c2F)nc(=O)c2cccnc21 , % Inhibition reported as 20.31

Entry Cc1sc2ncnc(Sc3nc4ccccc4[nH]3)c2c1C , % Inhibition reported as 57.62

Entry CCN(CC)CCN(Cc1ccc(-c2ccc(C(F)(F)F)cc2)cc1)C(=O)Cn1c(CCc2cccc(F)c2F)nc(=O)c2ccccc21 , % Inhibition reported as 60.98

Entry CCNc1cc(C(=O)N[C@@H](Cc2ccccc2)[C@H](O)CNCc2ccc3c(c2)OCCO3)cc(N2CCCCS2(=O)=O)c1 , % Inhibition reported as -0.5627

Entry COc1ccc(-n2ccnc2)cc1CNC1CCN(CC2Cn3c(=O)ccc4ccc(F)c2c43)CC1 (stereo not drawn) , % Inhibition reported as -10.31

Entry CN(C)c1ccc(-c2csc(C(=O)NCC3CCN(Cc4ccc(C(C)(C)C)cc4)C3)c2)cc1 (stereo not drawn) , % Inhibition reported as 80.7

Entry CCN(CC)CCN(Cc1ccc(-c2ccc(C(F)(F)F)cc2)cc1)C(=O)Cn1c(CCc2cccc(F)c2F)nc(=O)c2cccnc21 , % Inhibition reported as 97.72

Entry CCN(CC)CCOc1ccc(C(O)(C#CC(O)(c2ccc(C)cc2)c2ccc(OCCN(CC)CC)cc2)c2ccc(C)cc2)cc1 (stereo not drawn) , % Inhibition reported as 113

Entry CN(C)c1ccc(-c2csc(C(=O)NCC3CCN(Cc4cccc(C(F)(F)F)c4)C3)c2)cc1 (stereo not drawn) , % Inhibition reported as 49.29

Entry CCCC(C(=O)OCCN(CC)CC)(c1ccc(Cl)cc1)c1ccc(Cl)cc1 , % Inhibition reported as 16.96
